- Read-out: Cytochrome P450 3A4 (Homo sapiens)
- Protocol Description: LTEA_HepaRG_CYP3A4: Life Technologies and Expression Analysis (LTEA) Assay for CYP3A4 using HepaRG (AID 2283487)
- Details: mRNA level, 48 h; actives raise or lower the signal
The source made the active and inactive calls. Rule for the calls: active = hit-call score of the fitted dose curve at least 0.9, where 1 is the maximum; inactive = score below 0.9.
Select the matching outcome among YES for active, NO for inactive

Example entries and their recorded answers appear below.
Molecule: C=CC1(C)OC(=O)N(c2cc(Cl)cc(Cl)c2)C1=O (configuration not stated)
Cat: YES
--
Molecule: N#CC(CCc1ccc(Cl)cc1)(Cn1cncn1)c1ccccc1 (configuration not stated)
Cat: YES
--
Molecule: O=C(Nc1ccccc1)Nc1ccnc(Cl)c1
Cat: YES
--
Molecule: COc1cnc(OC)n2nc(NS(=O)(=O)c3c(OCC(F)F)cccc3C(F)(F)F)nc12
Cat: YES
--
Molecule: N#Cc1nn(-c2c(Cl)cc(C(F)(F)F)cc2Cl)c(N)c1S(=O)C(F)(F)F (configuration not stated)
Cat: YES

Each molecule tested received a call. Report the one for Cc1c(F)c(F)c(COC(=O)C2C(/C=C(\Cl)C(F)(F)F)C2(C)C)c(F)c1F (configuration not stated) .
NO

Which result was noted for this molecule in the test: COP(N)(=O)SC (configuration not stated)
NO

What outcome does the record of this test show for CCc1nn(C)c(C(=O)NCc2ccc(C(C)(C)C)cc2)c1Cl ?
YES

For C#CCOS(=O)OC1CCCCC1Oc1ccc(C(C)(C)C)cc1 (configuration not stated) , what call appears in the results of this test?
YES

Test call, this molecule: C=CCC1=C(C)C(OC(=O)C2C(C=C(C)C)C2(C)C)CC1=O (configuration not stated)
NO

Please state the recorded outcome for this molecule: Cc1cc(Cl)ccc1OCC(=O)O
NO

Outcome? N#Cc1cc(Br)c(O)c(Br)c1
YES
